system: HCT-116; experiment: NCI tumour cell line growth inhibition, 48 h
Active and inactive are the calls of the source. Rule as the data show it: active = GI50 up to about 1.1 µM and inactive = higher.
Below, each entry is listed alongside its reported GI50.

>  <molecule>
CN(C)Cc1cc(C(C)(C)C)cc(CN(C)C)c1O

>  <subject_of_test>
HCT-116

>  <GI50>
35.6 µM (inactive)

$$$$
>  <molecule>
Cc1nn(C(=O)Cc2ccccc2)c2c1C(c1ccc(Cl)cc1)SC(=N)N2 (centres undefined)

>  <subject_of_test>
HCT-116

>  <GI50>
> 100 µM (inactive)

$$$$
>  <molecule>
NCC1OC(n2cnc3c(=O)[nH]c(N)nc32)C(O)C1O (centres undefined)

>  <subject_of_test>
HCT-116

>  <GI50>
> 100 µM (inactive)

$$$$
>  <molecule>
CC1OC2OC3C(OCC(O)C3O)OC(=O)[C@]34CCC(C)(C)CC3C3=CCC5[C@@]6(C)C[C@H](O)[C@H](OC7OC(CO)C(O)C(O)C7OC7OC(COC(=O)CC(C)(O)CC(=O)OC1C(O)C2O)C(O)C(O)C7O)[C@@](C)(CO)C6CC[C@@]5(C)[C@]3(C)CC4 (some centres undefined)

>  <subject_of_test>
HCT-116

>  <GI50>
1.63 µM (inactive)

$$$$
